biological target: Peroxisome proliferator-activated receptor gamma (Homo sapiens); assay: Binding affinity to GST-tagged PPARgamma LBD at 50 uM after 4 hrs by TR-FRET competitive binding assay
The source made the active and inactive calls. The calls are words filed in the database; no cut-off is given here.
Please reply with one of these outcomes: T (active), F (inactive)

Examples from the recorded data:
| MOLECULE | CLASS |
| --- | --- |
| CCCCCCCCC1(O)OC(=O)c2cccc(O)c21 (stereo unspecified) | F |
| O=C1OC(=O)c2c(O)cccc21 | T |
| O=C1OC(=O)c2ccccc21 | F |
| CCCCCCCCC1(CCCCCCCC)OC(=O)c2cccc(O)c21 | F |

(Q) Please share the test call associated with CCCCCCCCC1(O)OC(=O)c2c(OCc3ccccc3)cccc21 (stereo unspecified) .
(A) F

(Q) Please share the test call associated with "CCCCCCCCOC(=O)c1cccc(O)c1C(=O)O" .
(A) T

(Q) Please share the test call associated with CCCCCCCCC1(OC)OC(=O)c2c(OCc3ccccc3)cccc21 (stereo unspecified) .
(A) F

(Q) Please share the test call associated with CCCCCCCCC1OC(=O)c2cccc(O)c21 (stereo unspecified) .
(A) T

(Q) Please share the test call associated with "CCCCCCCCCC(=O)Oc1cccc2c1C(=O)OC2=O" .
(A) F

(Q) Please share the test call associated with "CCCCCCCCOC(=O)c1cccc([N+](=O)[O-])c1C(=O)O" .
(A) T

(Q) Please share the test call associated with CCCCCCCCC1(O)OC(=O)c2c(O)cccc21 (stereo unspecified) .
(A) F

* * *

target: Peroxisome proliferator-activated receptor gamma (Homo sapiens); experiment: Binding affinity to GST-tagged PPARgamma LBD at 50 uM after 4 hrs by TR-FRET competitive binding assay
Calls of active or inactive are those of the source. No cut-off for these calls is given here.
OBSERVABLE: Activity

Answered cases to consult:
| COMPOUND | Activity |
| --- | --- |
| O=C1OC(=O)c2c1cccc2[N+](=O)[O-] | inactive |
| CCCCCCCCC1OC(=O)c2c(OC)cccc21 (stereo unspecified) | inactive |
| CCCCCCCCC1(CCCCCCCC)OC(=O)c2c(O)cccc21 | inactive |
| CCCCCCCCC1(OCc2ccccc2)OC(=O)c2c(OCc3ccccc3)cccc21 (stereo unspecified) | inactive |
| CCCCCCCCC1OC(=O)c2c(O)cccc21 (racemic) | Active |

Next, consider the following compound.
(Q) Query (compound): CN(CCOc1ccc(CC2SC(=O)NC2=O)cc1)c1ccccn1 (stereo unspecified) ; field requested: Activity
(A) Active

All values here come from ChEMBL document CHEMBL2057138.
